Data credit: patent US11034717B2

Known IC50 of a selection of molecules
Target: CYP2E1 (Homo sapiens (Human), UniProt P05181)
Sequence (P05181 whole entry): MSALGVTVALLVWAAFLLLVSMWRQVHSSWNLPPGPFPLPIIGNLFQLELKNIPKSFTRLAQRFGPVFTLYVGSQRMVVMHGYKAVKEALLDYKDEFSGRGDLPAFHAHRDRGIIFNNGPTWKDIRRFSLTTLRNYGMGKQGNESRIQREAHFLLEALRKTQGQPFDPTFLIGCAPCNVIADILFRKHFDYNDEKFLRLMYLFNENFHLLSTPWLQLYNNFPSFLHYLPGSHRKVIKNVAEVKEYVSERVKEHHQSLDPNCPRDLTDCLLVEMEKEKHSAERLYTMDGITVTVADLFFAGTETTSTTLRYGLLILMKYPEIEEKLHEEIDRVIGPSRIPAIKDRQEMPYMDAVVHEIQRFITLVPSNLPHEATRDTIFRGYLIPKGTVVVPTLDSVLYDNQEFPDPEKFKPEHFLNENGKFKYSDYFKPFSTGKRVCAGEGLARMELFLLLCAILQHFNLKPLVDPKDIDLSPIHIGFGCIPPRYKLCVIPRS
Assay: CYP450 inhibition, fluorescent substrate, recombinant baculosomes
Format: in vitro ADME
From the text: To evaluate the potential of a compound of the invention for drug-drug interactions, the six main CYP450 isoforms (CYP1A2, CYP2C9, CYP2C19, CYP2D6, CYP2E1, CYP3A4) are investigated (Obach, et al., J Pharmacol. Exp. Ther, 2006, 316, 336-348). […]

CC[C@H]1[C@@H](O)C2C3CC[C@H]([C@H](C)CCOS(=O)(=O)[O-])[C@@]3(C)C[C@H](O)C2[C@@]2(C)CC[C@@H](O)C[C@@H]12.[Na+] (some centres unmarked) [Compound 3, sodium salt] = > 10 µM

Request: Supply recorded IC50 for CC[C@H]1[C@@H](O)C2C3CC[C@H]([C@H](C)CCCOS(=O)(=O)[O-])[C@@]3(C)C[C@H](O)C2[C@@]2(C)CC[C@@H](O)C[C@@H]12.[Na+] (some centres unmarked) [Compound 5, sodium salt] here.
Result: > 10 µM

====

Known IC50 of a selection of compounds
Biological target: UniProt P08684
Sequence (P08684 whole entry): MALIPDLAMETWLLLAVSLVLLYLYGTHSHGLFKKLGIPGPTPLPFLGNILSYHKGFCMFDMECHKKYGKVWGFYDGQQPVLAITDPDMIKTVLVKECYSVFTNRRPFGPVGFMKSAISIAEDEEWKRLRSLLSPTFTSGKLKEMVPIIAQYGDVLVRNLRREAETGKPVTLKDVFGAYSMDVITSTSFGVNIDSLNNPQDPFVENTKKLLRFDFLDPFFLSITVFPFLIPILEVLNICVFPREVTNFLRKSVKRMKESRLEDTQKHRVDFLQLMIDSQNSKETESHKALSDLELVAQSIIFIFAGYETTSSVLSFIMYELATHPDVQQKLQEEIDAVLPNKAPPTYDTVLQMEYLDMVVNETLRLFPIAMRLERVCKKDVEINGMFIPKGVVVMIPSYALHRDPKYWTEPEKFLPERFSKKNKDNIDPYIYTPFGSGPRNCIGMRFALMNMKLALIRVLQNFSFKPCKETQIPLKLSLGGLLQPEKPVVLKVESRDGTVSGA
Experiment: CYP450 inhibition, fluorescent substrate, recombinant baculosomes
Assay type: in vitro ADME
Conditions: read-out: CYP3A4 (Green substrate) IC50; Green substrate
Source text: To evaluate the potential of a compound of the invention for drug-drug interactions, the six main CYP450 isoforms (CYP1A2, CYP2C9, CYP2C19, CYP2D6, CYP2E1, CYP3A4) are investigated (Obach, et al., J Pharmacol. Exp. Ther, 2006, 316, 336-348). […]

CC[C@H]1[C@@H](O)C2C3CC[C@H]([C@H](C)CCOS(=O)(=O)[O-])[C@@]3(C)C[C@H](O)C2[C@@]2(C)CC[C@@H](O)C[C@@H]12.[Na+] (some centres unmarked) [Compound 3, sodium salt] = > 10 µM

Let us move to another entry and its IC50.
Request: Supply recorded IC50 for CC[C@H]1[C@@H](O)C2C3CC[C@H]([C@H](C)CCCOS(=O)(=O)[O-])[C@@]3(C)C[C@H](O)C2[C@@]2(C)CC[C@@H](O)C[C@@H]12.[Na+] (some centres unmarked) [Compound 5, sodium salt] here.
Result: > 10 µM
